Target: rat P2X7 (Rattus norvegicus, UniProt Q64663)
Sequence (Q64663 whole entry): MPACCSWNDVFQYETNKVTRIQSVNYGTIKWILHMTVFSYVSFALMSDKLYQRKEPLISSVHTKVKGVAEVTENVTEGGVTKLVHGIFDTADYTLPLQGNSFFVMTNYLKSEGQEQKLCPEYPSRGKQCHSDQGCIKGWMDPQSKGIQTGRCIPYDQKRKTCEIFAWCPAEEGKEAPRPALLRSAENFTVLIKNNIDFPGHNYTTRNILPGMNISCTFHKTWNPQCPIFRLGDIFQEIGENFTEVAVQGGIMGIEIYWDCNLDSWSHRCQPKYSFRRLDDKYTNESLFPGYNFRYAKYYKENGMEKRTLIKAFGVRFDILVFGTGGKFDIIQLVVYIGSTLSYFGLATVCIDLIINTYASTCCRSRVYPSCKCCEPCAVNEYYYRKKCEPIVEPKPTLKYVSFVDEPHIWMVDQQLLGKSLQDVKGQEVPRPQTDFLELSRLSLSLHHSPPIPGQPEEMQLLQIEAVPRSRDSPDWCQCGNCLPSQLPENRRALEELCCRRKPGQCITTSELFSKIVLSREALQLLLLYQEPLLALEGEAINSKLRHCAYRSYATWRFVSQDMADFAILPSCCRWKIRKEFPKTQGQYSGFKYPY
Assay: Ca2+ flux (FLIPR) in 1321N1 cells expressing recombinant rat P2X7 channel
Conditions: FLIPR (rat) IC50 (μM), 250 μM BzATP
Quick rule for you: IC50 under 0.3 µM gets YES, anything else gets NO.

Please review the following examples before continuing.
{"columns": ["compound", "assigned_class"],
 "data": [
  ["C[C@H]1Cn2c(nnc2-c2ccc(F)c(F)c2)CN1C(=O)c1cccc(C(F)(F)F)c1Cl [Example 48]", "NO"],
  ["O=C(c1cccc(C(F)(F)F)c1Cl)N1CCn2c(C(F)F)nnc2[C@H]1c1ccccc1 [Example 108]", "YES"],
  ["O=C(c1cccc(C(F)(F)F)c1F)N1CCn2c(nnc2C(F)(F)F)[C@H]1c1ccccc1 [Example 128]", "YES"],
  ["Cc1nnc2n1CCN(C(=O)c1cccc(C(F)(F)F)c1Cl)C2c1ccccc1 (racemic) [Example 53]", "YES"]
]}

API: the following record is the query input.
[ask] Say whether its IC50 is strictly beneath 0.3 µM. Entry: C[C@H]1Cn2c(nnc2-c2cccc(F)c2F)CN1C(=O)c1cccc(Cl)c1Cl [Example 44]
[reply] NO
